# System: C2C12 cells
# experiment.summary: Cell viability assay (MTT)
# Type: cell-based, Mus musculus mouse
# measurement.setup: C2C12, 72 h; read-out: IC50 (cell proliferation, MTT)
experimental.endpoint: IC50 (µM)
# unit: µM | format: bare number

**Q:** Return IC50 for the following molecule: Nc1ccc(N)cc1 [PPD, p-phenylenediamine]
**A:** 59
